- tested_system: Human TRPV3 (Homo sapiens)
- Construct: expressed in transfected cells; host or cells: CHO cells (selected with G-418)
- assay_protocol: 45Calcium uptake assay: inhibition of 2-APB induced cellular uptake of radioactive calcium
- Assay type: cell-based
- assay_context: 10 μM test compound; human TRPV3 expressing CHO cells; 2-APB 500 μM; read-out: Percentage Inhibition (10 μM)
parameter_measured: inhibition at 10 µM (%)

>>> obs_value("COc1cccc(/C=C/c2nc3c(F)cc(F)cc3n2-c2ccc(C#N)cn2)c1OC1CCCC1")
98.8
>>> obs_value("CCCCOc1c(/C=C/c2nc3ccccc3n2-c2ccc(C(F)(F)F)cn2)cccc1OC")
90.2
>>> obs_value("COc1cccc(/C=C/c2nc3ccccc3n2-c2ccc(C(F)(F)F)cn2)c1OCc1ccccc1")
92.6
>>> obs_value("CCCCOc1c(/C=C/c2nc3ccccc3n2-c2ccc(C#N)cc2)cccc1OC")
96
>>> obs_value("COc1cccc(/C=C/c2nc3ccccc3n2-c2ccc(C)cc2)c1OCC1CC1")
86.6
>>> obs_value("COc1cccc(/C=C/c2nc3cnccc3n2-c2ccc(C#N)cn2)c1OC1CCCC1")
98.3
>>> obs_value("COc1cccc(/C=C/c2nc3cc(C)c(C)cc3n2-c2ccc(C#N)cn2)c1OC1CCCC1")
95.9
>>> obs_value("COc1cccc(/C=C/c2nc3cc(F)c(F)cc3n2-c2ncccc2C#N)c1OC1CCCC1")
96

----------
- tested_system: Human TRPV3 (Homo sapiens, UniProt Q8NET8)
- Construct: expressed in transfected cells; host or cells: CHO cells (selected with G-418)
- assay_protocol: 45Calcium uptake assay: inhibition of 2-APB induced cellular uptake of radioactive calcium
- Format: cell-based
- assay_context: 1 μM test compound; human TRPV3 expressing CHO cells; 2-APB 500 μM; read-out: Percentage Inhibition (1 μM)
parameter_measured: inhibition at 1 µM (%)

Use these answered entries as a reference point.
>>> obs_value("COc1cccc(/C=C/c2nc3ccccc3n2-c2ccccn2)c1OCC1CC1 [Example 1]")
12.8
>>> obs_value("COc1cccc(/C=C/c2nc3ccccc3n2-c2ccc(C#N)cn2)c1OCC(C)C [Example 11]")
94.8
>>> obs_value("COc1cccc(/C=C/c2nc3ccccc3n2-c2ccc(C#N)cn2)c1OCc1ccccc1C#N [Example 15]")
90.3
>>> obs_value("COc1cccc(/C=C/c2nc3cc(C)c(C)cc3n2-c2ccc(C#N)cn2)c1OC1CCCC1 [Example 62]")
92
>>> obs_value("COc1cccc(/C=C/c2nc3cc(Cl)c(C(F)(F)F)cc3n2-c2ccc(C#N)cn2)c1OC1CCCC1 [Example 71]")
53.7
>>> obs_value("FC(F)Oc1cccc(/C=C/c2nc3cccnc3n2-c2ccc(C(F)(F)F)cc2)c1OCC1CCC1 [Example 99]")
89.5

A: COc1cccc(/C=C/c2nc3ccccc3n2-c2ncc(C(F)(F)F)cc2Cl)c1OC1CCCC1 [Example 29]
B: COc1cccc(/C=C/c2nc3ccccc3n2-c2ncc(Cl)cc2Cl)c1OCc1ccccc1 [Example 5]
Hello, I am sorting some records. Could you say if A or B has the smaller inhibition at 1 µM value? Answer by stating the label of the chosen item.
B

----------
- tested_system: Human TRPV3 (Homo sapiens, UniProt Q8NET8)
- Construct: expressed in transfected cells; host or cells: CHO cells (selected with G-418)
- Sequence (Q8NET8 1-790): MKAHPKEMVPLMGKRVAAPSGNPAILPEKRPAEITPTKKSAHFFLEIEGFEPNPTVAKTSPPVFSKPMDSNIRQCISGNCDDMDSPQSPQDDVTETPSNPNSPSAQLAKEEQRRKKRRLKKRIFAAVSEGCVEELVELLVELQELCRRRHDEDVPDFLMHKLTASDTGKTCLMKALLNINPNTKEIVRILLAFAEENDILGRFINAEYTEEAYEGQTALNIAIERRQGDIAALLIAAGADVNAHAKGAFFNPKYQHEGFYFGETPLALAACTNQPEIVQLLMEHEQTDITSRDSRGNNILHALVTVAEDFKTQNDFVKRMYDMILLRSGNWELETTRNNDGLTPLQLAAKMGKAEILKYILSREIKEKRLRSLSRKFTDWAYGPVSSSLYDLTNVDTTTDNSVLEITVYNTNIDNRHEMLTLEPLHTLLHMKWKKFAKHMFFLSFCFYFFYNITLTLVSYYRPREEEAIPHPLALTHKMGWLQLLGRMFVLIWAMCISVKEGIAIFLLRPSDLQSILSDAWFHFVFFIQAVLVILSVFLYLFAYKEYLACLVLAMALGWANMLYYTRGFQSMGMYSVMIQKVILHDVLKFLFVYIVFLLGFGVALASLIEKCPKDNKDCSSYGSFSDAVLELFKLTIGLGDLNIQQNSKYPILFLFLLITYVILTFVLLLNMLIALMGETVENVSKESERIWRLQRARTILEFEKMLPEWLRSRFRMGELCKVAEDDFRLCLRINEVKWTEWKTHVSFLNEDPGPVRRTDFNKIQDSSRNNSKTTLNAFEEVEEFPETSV
- assay_protocol: 45Calcium uptake assay: inhibition of 2-APB induced cellular uptake of radioactive calcium
- Assay type: cell-based
- assay_context: 1 μM test compound; human TRPV3 expressing CHO cells; 2-APB 500 μM; read-out: Percentage Inhibition (1 μM)
parameter_measured: inhibition at 1 µM (%)

Use these answered entries as a reference point.
>>> obs_value("CCCCOc1c(/C=C/c2nc3ccccc3n2-c2ccc(C#N)cc2)cccc1OC")
82.8
>>> obs_value("COc1cccc(/C=C/c2nc3cc(Cl)c(Cl)cc3n2-c2ccc(C#N)cn2)c1OC1CCCC1")
90.8
>>> obs_value("COc1ccc2c(c1)nc(/C=C/c1cccc(OC)c1OC1CCCC1)n2-c1ccc(C#N)cn1")
96.8

P: COc1cccc(/C=C/c2nc3cc(OC(F)F)ccc3n2-c2ccc(C#N)cn2)c1OC1CCCC1
Q: COc1cccc(/C=C/c2nc3ccccc3n2-c2ccc(C#N)nn2)c1OC1CCCC1
Between the two listed entries P and Q , which has its inhibition at 1 µM at the higher number? Answer by stating the label of the chosen item.
P
(P: 95.8%, Q: 0%)

P: N#Cc1ccc(-n2c(/C=C/c3cccc(OC(F)F)c3OCC3CCC3)nc3cccnc32)nc1
Q: COc1cccc(/C=C/c2nc3ccccc3n2Cc2ccc(C#N)cc2)c1OCc1ccccc1F
R: COc1cccc(/C=C/c2nc3ccccc3n2Cc2ccc(C(C)(C)C)cc2)c1OC1CCCC1
# rank_down: sort by inhibition at 1 µM, max first Give the labels in the order specified.
P, Q, R

----------
- tested_system: Human TRPV3 (Homo sapiens, UniProt Q8NET8)
- Construct: expressed in transfected cells; host or cells: CHO cells (selected with G-418)
- Sequence (Q8NET8 1-790): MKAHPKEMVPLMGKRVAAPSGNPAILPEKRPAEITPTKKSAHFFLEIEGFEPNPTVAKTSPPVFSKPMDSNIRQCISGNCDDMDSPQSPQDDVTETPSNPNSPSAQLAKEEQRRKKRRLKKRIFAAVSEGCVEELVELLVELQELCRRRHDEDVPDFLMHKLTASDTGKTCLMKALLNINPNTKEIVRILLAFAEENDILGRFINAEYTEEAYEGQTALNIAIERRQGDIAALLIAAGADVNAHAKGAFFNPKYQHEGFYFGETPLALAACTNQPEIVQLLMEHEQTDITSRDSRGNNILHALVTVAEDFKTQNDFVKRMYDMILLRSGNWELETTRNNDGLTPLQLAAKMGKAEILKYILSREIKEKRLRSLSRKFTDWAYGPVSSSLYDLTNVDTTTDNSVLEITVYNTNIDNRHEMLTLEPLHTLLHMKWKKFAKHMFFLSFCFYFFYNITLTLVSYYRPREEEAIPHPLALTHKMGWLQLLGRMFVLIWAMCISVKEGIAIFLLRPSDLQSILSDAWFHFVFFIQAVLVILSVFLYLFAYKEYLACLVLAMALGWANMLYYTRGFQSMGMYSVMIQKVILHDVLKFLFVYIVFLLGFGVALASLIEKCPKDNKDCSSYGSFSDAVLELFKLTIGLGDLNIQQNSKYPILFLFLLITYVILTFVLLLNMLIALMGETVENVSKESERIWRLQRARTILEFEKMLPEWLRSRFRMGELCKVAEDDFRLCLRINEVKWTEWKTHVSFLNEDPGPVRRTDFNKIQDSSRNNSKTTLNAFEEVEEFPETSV
- assay_protocol: 45Calcium uptake assay: inhibition of 2-APB induced cellular uptake of radioactive calcium
- Format: cell-based
- assay_context: 10 μM test compound; human TRPV3 expressing CHO cells; 2-APB 500 μM; read-out: Percentage Inhibition (10 μM)
parameter_measured: inhibition at 10 µM (%)

>>> obs_value("CCCCCOc1c(/C=C/c2nc3cccnc3n2-c2ccc(C#N)cn2)cccc1OC(F)F [Example 96]")
98.1
>>> obs_value("COc1cccc(/C=C/c2nc3ccccc3n2-c2ccccn2)c1OCC1CC1 [Example 1]")
78.5
>>> obs_value("COc1cccc(/C=C/c2nc3ccccc3n2-c2ccc(C#N)cn2)c1OC1CCCC1 [Example 13]")
95.8
>>> obs_value("CCCCOc1c(/C=C/c2nc3cccnc3n2-c2ccc(C#N)cn2)cccc1OC [Example 86]")
95.2
>>> obs_value("COc1cccc(/C=C/c2nc3ccccc3n2Cc2ccc(F)cc2F)c1OCC1CC1 [Example 41]")
86.5
>>> obs_value("COc1cccc(/C=C/c2nc3cc(C(F)(F)F)ccc3n2-c2ccc(C#N)cn2)c1OC1CCCC1 [Example 57]")
96.1
>>> obs_value("COc1cccc(/C=C/c2nc3cccnc3n2-c2ccc(C#N)cn2)c1OCC1CC1 [Example 89]")
96.6
>>> obs_value("COc1cccc(/C=C/c2nc3ccccc3n2-c2ncc(Br)cn2)c1OC1CCCC1 [Example 23]")
84.5
